target: IL36R; test: Kd (SPR)
measuredParameter: pKd
// pKd: -log10(molar conc.)

[[record]]
binder = "unnamed (protein) chain 1: QVQLVQSGAEVKKPGASVKVSCKASGYSFTSSWIHWVKQAPGQGLEWMGEINPGNVRTNYNENFRNKVTMTVDTSISTAYMELSRLRSDDTAVYYCTRVTYGEPYFDYWGQGTLVTVSS chain 2: QIVLTQSPGTLSLSPGERATMTCTASSSVSSSYFHWYQQKPGQAPRLWIYRTSRLASGVPDRFSGSGSGTDFTLTISRLEPEDAATYYCHQFHRSPLTFGAGTKLEIK"
number = 9.00

[[record]]
binder = "unnamed (protein) chain 1: QVQLVQSGAEVKKPGASVKVSCKASGYSFTSSWIHWVKQAPGQGLEWMGEINPGNVRTNYNENFRNKVTMTVDTSISTAYMELSRLRSDDTAVYYCTRIRYGEPYFDYWGQGTLVTVSS chain 2: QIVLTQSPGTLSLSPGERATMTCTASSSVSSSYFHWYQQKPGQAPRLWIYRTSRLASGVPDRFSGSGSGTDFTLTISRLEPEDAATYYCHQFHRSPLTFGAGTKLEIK"
number = 7.91


Query binder follows.
Exam item: Fill blank: measured pKd of the binder unnamed (protein) chain 1: QVQLVQSGAEVKKPGASVKVSCKASGYSFTSSWIHWVKQAPGQGLEWMGEINPGNVRTNYNENFRNKVTMTVDTSISTAYMELSRLRSDDTAVYYCTRVRYGEPWFDYWGQGTLVTVSS chain 2: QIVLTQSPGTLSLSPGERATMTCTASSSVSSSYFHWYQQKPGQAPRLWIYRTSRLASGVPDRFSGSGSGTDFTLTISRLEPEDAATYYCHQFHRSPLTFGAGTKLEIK is ____.
Marked response: 9.05
